Some compounds, each annotated with its measured Viability %.
test system: Human Skin Normal Cells (Cell System Fb cells); assay: Cytotoxicity assay for human skin normal cells, trypan blue; type: cell-based; settings: human skin normal cells, 0.005 mM, 3 days
Numeric only. Scale: %

Worked set:
>  <compound>
CC(O)c1cc2c(o1)C(=O)c1cccc(O)c1C2=O (single isomer, unassigned; isomer 2) [α-Isomer]

>  <uom>
%

>  <Viability %>
70

$$$$
>  <compound>
CO[C@@]12[C@H](COC(N)=O)C3=C(C(=O)C(C)=C(N)C3=O)N1C[C@@H]1N[C@@H]12 [Mitomycin, mitomycin, reference compound]

>  <uom>
%

>  <Viability %>
30

$$$$
>  <compound>
CC(O)c1cc2c(o1)C(=O)c1cccc(O)c1C2=O (single isomer, unassigned; isomer 2) [β-Isomer]

>  <uom>
%

>  <Viability %>
50

$$$$

Query string: Which Viability % is listed for CC(O)c1cc2c(o1)C(=O)c1cccc(O)c1C2=O (racemic) [Racemate] ?
Result string: 80

###

tested on: Human Skin Normal Cells (Cell System Fb cells); experiment: Cytotoxicity assay for human skin normal cells, trypan blue; format: cell-based; settings: human skin normal cells, 0.05 mM, 3 days
Some compounds, each annotated with its measured Viability %.
Numeric only. Scale: %

>  <compound>
CC(O)c1cc2c(o1)C(=O)c1cccc(O)c1C2=O (racemic) [Racemate]

>  <recorded-result>
50

$$$$
>  <compound>
CC(O)c1cc2c(o1)C(=O)c1cccc(O)c1C2=O (single isomer, unassigned; isomer 2) [β-Isomer]

>  <recorded-result>
20

$$$$
>  <compound>
CC(O)c1cc2c(o1)C(=O)c1cccc(O)c1C2=O (single isomer, unassigned; isomer 2) [α-Isomer]

>  <recorded-result>
40

$$$$

Query string: Hi! What's the reported Viability % for CO[C@@]12[C@H](COC(N)=O)C3=C(C(=O)C(C)=C(N)C3=O)N1C[C@@H]1N[C@@H]12 [Mitomycin, mitomycin, reference compound] on Human Skin Normal Cells (Cell System Fb cells)?
Result string: 0
